Recorded values, source ChEMBL document CHEMBL1201862.

System: UACC-62
Test: NCI tumour cell line growth inhibition, 48 h
Calls of active or inactive are those of the source. Rule as the data show it: active = GI50 up to about 1.1 µM and inactive = higher.
Select the matching outcome among 1.0 (active), 0.0 (inactive)

Exercise: Recorded call for Nc1nc2sc3ccccc3c(=O)n2n1 ?
Key: 0.0

---
Exercise: Recorded call for CC12CCC3c4ccc(O)cc4CCC3C1C/C(=N\O)C2O (stereo unspecified) ?
Key: 0.0

Exercise: Recorded call for COc1c(N2CCCCC2)c2c(=O)c3ccccc3oc2c2c3ccccc3n(C)c12 ?
Key: 0.0

Exercise: Recorded call for COc1nc(O)nc2c1C(c1ccc([N+](=O)[O-])cc1)c1c(OC)nc(O)nc1O2 ?
Key: 0.0

Exercise: Recorded call for OC(c1cc2ccc(C(F)(F)F)cc2c2cc(C(F)(F)F)ccc12)C1CCCCN1 (stereo unspecified) ?
Key: 0.0

Exercise: Recorded call for NC1CC(=O)c2c1sc(Cl)c2Cl (stereo unspecified) ?
Key: 0.0

Exercise: Recorded call for CCOC(=O)N1c2ccccc2N(C(=O)OCC)C1CC(=O)/C=C/c1ccccc1 ?
Key: 0.0

Exercise: Recorded call for Cc1c2c(OCCN3CCCCC3)nn(C)c(=O)c2c(C)n1-c1ccccc1 ?
Key: 0.0

Exercise: Recorded call for O=C(CSSCC(=O)OCCS(=O)(=O)Nc1ccc(Br)cc1)OCCS(=O)(=O)Nc1ccc(Br)cc1 ?
Key: 0.0

Exercise: Recorded call for COc1cc([N+](=O)[O-])cc2c1NC(=O)C2(C)SC (stereo unspecified) ?
Key: 0.0

Exercise: Recorded call for CC(=O)Nc1ccc2c(c1)[nH]c(=O)c1cc(Cl)ccc12 ?
Key: 0.0

Exercise: Recorded call for Cc1c(N2C(=O)/C(=C/c3ccc(N(CCC#N)CCC#N)cc3)N=C2c2ccccc2)c(=O)n(-c2ccccc2)n1C ?
Key: 0.0

Exercise: Recorded call for O=C(CN1C(=O)c2ccccc2C1=O)C(O)CN1C(=O)c2ccccc2C1=O (stereo unspecified) ?
Key: 0.0

Exercise: Recorded call for C=C(C(=C)N1N=NC2C3CCC(C3)C21)N1N=NC2C3CCC(C3)C21 (stereo unspecified) ?
Key: 0.0

Exercise: Recorded call for COC1(OC)c2no[n+]([O-])c2CCC1O (stereo unspecified) ?
Key: 0.0

Exercise: Recorded call for Nc1ncnc2c1ncn2C1C=CC(COS(N)(=O)=O)C1 (stereo unspecified) ?
Key: 0.0

Exercise: Recorded call for CCCC(=O)N[C@@H](Cc1cc(I)c(O)c(I)c1)C(=O)NCCCNCCCCNCCCNC(=O)[C@@H](N)CCCN=C(N)N ?
Key: 0.0

###

# GI50 listing for each entry below
Tested on: BT-549
Assay: NCI tumour cell line growth inhibition, 48 h
Active and inactive are the calls of the source. No stated cut-off is given here; in the data, active = GI50 up to about 1.1 µM and inactive = higher.

Worked cases, GI50 given:
Exercise: I am curious: what GI50 value has been reported for CSC12c3cc(C)n(-c4ccccc4)c3CC(C)(C)CN1C(=O)C2Oc1ccccc1 (centres undefined) ?
Key: 85.7 µM (inactive)

Exercise: I am curious: what GI50 value has been reported for COc1ccccc1C(=O)N(Cc1ccccc1)c1ccc(Cl)c(C(=O)OC(C)C)c1 ?
Key: 34.4 µM (inactive)

Exercise: I am curious: what GI50 value has been reported for CC12CCC3c4ccc(O)cc4CCC3C1C/C(=N\O)C2O (centres undefined) ?
Key: > 100 µM (inactive)

Exercise: I am curious: what GI50 value has been reported for NCCCN(CCCCN(CCCN)Cc1ccc2ccccc2c1)Cc1ccc2ccccc2c1 ?
Key: 2.23 µM (inactive)

Exercise: I am curious: what GI50 value has been reported for CC1(C)CCCC2(C)C3=C(CCC12)C(=O)OC3 (centres undefined) ?
Key: 80.5 µM (inactive)

---
Exercise: I am curious: what GI50 value has been reported for COC(=O)N/N=C(\C)C(CN1CCOCC1)C(c1ccccc1)c1cc2ccccc2oc1=O (centres undefined) ?
Key: 68.7 µM (inactive)

Exercise: I am curious: what GI50 value has been reported for CC(C)(C)OC(=O)NC(Cc1ccccc1)C(=O)OCN1C(=O)C2C3C=CC(C2C1=O)C1C2C(=O)N(COC(=O)C(Cc4ccccc4)NC(=O)OC(C)(C)C)C(=O)C2C31 (centres undefined) ?
Key: 18.6 µM (inactive)

Exercise: I am curious: what GI50 value has been reported for COC(=O)[C@@H]1[C@@H](c2cccc(Cl)c2)[C@H](C(=O)OC)C2(C[C@@]1(C)O)NCCS2 (some centres undefined) ?
Key: > 100 µM (inactive)

Exercise: I am curious: what GI50 value has been reported for Cc1nc2c(=S)n(C)ncc2[nH]1 ?
Key: > 100 µM (inactive)

###

# GI50 listing for each entry below
System: HCC 2998
Assay: NCI tumour cell line growth inhibition, 48 h
Activity calls are given as the source filed them. No stated cut-off is given here; in the data, active = GI50 up to about 1.1 µM and inactive = higher.

Worked cases, GI50 given:
Exercise: I am curious: what GI50 value has been reported for Cc1cc2c(c(C(=O)O)c1C)-c1cccc(F)c1C2=O ?
Key: > 100 µM (inactive)

Exercise: I am curious: what GI50 value has been reported for [N-]=[N+]=NCC(O)Cn1cnc2c(NC(=O)c3ccccc3)ncnc21 (stereo not given) ?
Key: > 100 µM (inactive)

Exercise: I am curious: what GI50 value has been reported for Cc1ccc(C(C2C(=O)N(C)C(=O)N(C)C2=O)C(F)(F)C(=O)N(C)C)cc1 (stereo not given) ?
Key: > 100 µM (inactive)

---
Exercise: I am curious: what GI50 value has been reported for CCN1CC2(COC)C(O)CC(OC)C34C5CC6(O)C(OC)C=C(C5C6OC(=O)c5ccc(OC)c(OC)c5)C(C(OC)C23)C14 (stereo not given) ?
Key: > 7.5 µM (inactive)

Exercise: I am curious: what GI50 value has been reported for C=C1CC(CC)(CCN2C(=O)c3ccccc3C2=O)OC1=O (stereo not given) ?
Key: 17.7 µM (inactive)

###

System: NCI-H460
Test: NCI tumour cell line growth inhibition, 48 h
Active and inactive are the calls of the source. Cut-off read from the data, not from the text of the source: active = GI50 up to about 1.1 µM and inactive = higher.
Select the matching outcome among y (active), n (inactive)

Would you please look over these solved cases?
Exercise: Recorded call for Cc1cc(O)ccc1C1(c2ccc(F)cc2)OC(=O)c2ccccc21 (centres undefined) ?
Key: n

Exercise: Recorded call for CC1CCC(C(C)C)C(OC(=O)NCn2cc(-c3ccccc3)nn2)C1 (centres undefined) ?
Key: n

Exercise: Recorded call for CC1=C(C(=O)Nc2ccccc2C)C(c2ccccc2O)C(C(=O)Nc2ccccc2C)=C(C)N1 ?
Key: n

---
Exercise: Recorded call for Cc1ccc(-c2cnc(NC3OC(COC(=O)c4ccccc4)C(OC(=O)c4ccccc4)C(OC(=O)c4ccccc4)C3OC(=O)c3ccccc3)s2)cc1 (centres undefined) ?
Key: n

Exercise: Recorded call for O=C1/C(=C/c2cccc([N+](=O)[O-])c2)N=C(c2ccccc2)N1c1nc2c(Cl)cc(Cl)cc2s1 ?
Key: n

Exercise: Recorded call for CN(C)CCNC1=Nc2ccccc2C(=O)N2CSCC12 (centres undefined) ?
Key: n

###

Tested on: SK-MEL-28
Assay: NCI tumour cell line growth inhibition, 48 h
The source made the active and inactive calls. Cut-off read from the data, not from the text of the source: active = GI50 up to about 1.1 µM and inactive = higher.
Select the matching outcome among active, inactive

Exercise: Recorded call for O=C1/C(=C/c2ccccc2)CN(C(=O)OCC(Cl)(Cl)Cl)C/C1=C\c1ccccc1 ?
Key: inactive

Exercise: Recorded call for CCCCCCCCCCCCCC(=O)O[C@H]1CC[C@H](NC(=O)[C@H](OC)[C@H](O)[C@@H](O)[C@H](O)/C=C/C(C)C)C(=O)N(C)C1 [BENGAMIDE B] ?
Key: active

---
Exercise: Recorded call for O=C(O)c1ccc(O)c(/N=N/c2cc(S(=O)(=O)O)c3ccccc3c2O)c1 ?
Key: inactive

Exercise: Recorded call for O=C1CCCC/C1=C1\C(=O)Nc2cc(F)ccc21 ?
Key: inactive

###

Tested on: Hs-578T
Assay: NCI tumour cell line growth inhibition, 48 h
Activity calls are given as the source filed them. No stated cut-off is given here; in the data, active = GI50 up to about 1.1 µM and inactive = higher.
Select the matching outcome among Y (active), N (inactive)

Would you please look over these solved cases?
Exercise: Recorded call for C[C@]12C(=O)OC[C@H](c3ccccc3)N1C(=O)N(Cc1ccccc1)[C@@H]2CO ?
Key: N

Exercise: Recorded call for COc1ccc(/C=C2\CCC/C(=C\c3ccc(O)c(CN4CCCCC4)c3)C2=O)cc1 ?
Key: N

Exercise: Recorded call for COc1cc(OC)c(C2c3cc4c(cc3OC(N3CCCC3)C2C)OCO4)c(OC)c1 (stereo unspecified) ?
Key: N

Exercise: Recorded call for COC1(OC)CC(CO)(CNc2nc(N)nc(Cl)c2/C=N\O)C1 ?
Key: N

Exercise: Recorded call for CCOc1ccc(NC(=S)N/C=C(/C(C)=O)C(=O)Nc2ccccc2C)cc1 ?
Key: N

---
Exercise: Recorded call for Cc1n[nH]c(=O)n1/N=C/c1cccnc1 ?
Key: N

Exercise: Recorded call for CC(C)(C)OCC1NC(=O)[C@@H]2Cc3c([nH]c4ccccc34)C(C3CCCCC3)N2C1=O (stereo partly specified) ?
Key: N

Exercise: Recorded call for CC1(C)CN(CC(=O)O)CC(Cc2ccc(OCC(=O)O)cc2)N(CC(=O)O)CC(C)(C)SS1 (stereo unspecified) ?
Key: N

Exercise: Recorded call for c1ccc(Cc2cccc3cc(-c4ccc(-c5ccccc5)cc4)[nH]c23)cc1 ?
Key: N

Exercise: Recorded call for Cc1nc2ccc(F)cc2c(Cl)c1CCCl ?
Key: N
